- Assay: NCI Yeast Anticancer Drug Screen. Data for the rad50 strain (AID 155);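 also: 0% = growth of vehicle-only cultures of the same strain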
- Condition details: S. cerevisiae rad50 strain growth inhibition; at 5.0 µM (retest, dose inferred, filed as 0.5); active compounds read high
About 79,000 compounds went through this panel and 15% of them were active in at least one assay; those are over-represented in the sample as a whole.
Recorded metric: growth inhibition (%)
A number alone suffices; assume %.

[
  {
    "Compound": "O=S(=O)(c1cccc(C(F)(F)F)c1)N1c2ccccc2-n2cccc2C1c1cccnc1 (stereo not drawn)",
    "growth inhibition [%]": 27
  },
  {
    "Compound": "CC(CN(C)C)C(=O)/C=C/c1ccc(Cl)c(Cl)c1 (stereo not drawn)",
    "growth inhibition [%]": -9
  }
]

Now consider a different compound.
Input line: Request the reported growth inhibition associated with CCOC(=O)C(Cc1c2ccccc2cc2ccccc12)(NC(C)=O)C(=O)OCC
Output line: -8

* * *

- Assay: NCI Yeast Anticancer Drug Screen. Data for the sgs1 strain (AID 173);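 also: 0% = growth of vehicle-only control cultures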
- Condition details: S. cerevisiae sgs1 mutant, at 1.2 µM
- Method: Growth inhibition of yeast strains with defined genetic alterations is measured as a screen for potential anti-cancer activity. Selected strains with alterations in DNA damage repair or cell cycle control were exposed to compounds and growth inhibition was measured relative to vehicle treated controls. The strain used in this assay is sgs1
About 79,000 compounds went through this panel and 15% of them were active in at least one assay; those are over-represented in the sample as a whole. Calls of active or inactive are those of the source. Rule as the data show it: active = growth inhibition above about 70%; inactive = the rest.
Bench note: report the call from active, inactive

For orientation, consider the following solved cases.
[
  {
    "Molecule": "CCOC(=O)/C(=C/c1cccc(Cl)c1)N(CC)CC",
    "Class assignment": "inactive"
  },
  {
    "Molecule": "O=C(CN(c1ccccc1)c1ccccc1)n1nnc2ccccc21",
    "Class assignment": "inactive"
  },
  {
    "Molecule": "CN(C)CC(CN(C)C)C(=O)/C=C/c1ccc(Cl)cc1Cl",
    "Class assignment": "inactive"
  }
]

Input line: # lookup: test call for O=C1c2ccccc2N2OC3(N4CCCC4)CCCCC3C12c1ccccc1 (stereo not drawn)
Output line: inactive

Input line: # repeat for O=C(Cc1ccccc1)NN1C(=O)C(Cl)C1c1cc(Br)cc(Br)c1O (stereo not drawn)
Output line: inactive

Input line: # repeat for CCCC/C=C1\CCC(CN2CCCC2)C1=O (stereo not drawn)
Output line: inactive

Input line: # repeat for COc1ccc2nc3cccc([N+](=O)[O-])c3c(NCCNCCO)c2c1
Output line: active

Input line: # repeat for O=C(C#Cc1ccccc1)Nc1ccccc1
Output line: inactive

Input line: # repeat for COc1ccc(/C=C2\SC(=S)N(/C=C3\C(=O)N(c4ccccc4)N=C3C)C2=O)cc1OC
Output line: inactive

* * *

- Assay: NCI Yeast Anticancer Drug Screen. Data for the mec2-1 strain (AID 157)
- Condition details: S. cerevisiae mec2-1 strain, at 3.7 µM, active compounds read high
- Experimental: Growth inhibition of yeast strains with defined genetic alterations is measured as a screen for potential anti-cancer activity. Selected strains with alterations in DNA damage repair or cell cycle control were exposed to compounds and growth inhibition was measured relative to vehicle treated controls. The strain used in this assay is mec2-1
About 79,000 compounds went through this panel and 15% of them were active in at least one assay; those are over-represented in the sample as a whole.
Below: a set of entries, each annotated with reported growth inhibition.
A number alone suffices; assume %.

Would you please look over these solved cases?
[
  {
    "Smiles entry": "CNC(=O)OCc1c2ccncc2c(C)c2c1[nH]c1ccccc12",
    "Display unit": "%",
    "growth inhibition": 60
  },
  {
    "Smiles entry": "CCCCCCNCCCNc1c2cc(OC)ccc2nc2cccc([N+](=O)[O-])c12",
    "Display unit": "%",
    "growth inhibition": 4
  }
]

Now consider a different compound.
Input line: Request the reported growth inhibition associated with CCOC(=S)SSSC(=S)OCC
Output line: -5
